Ref: patent US10717731B2

# experimental.target: human CYP11B2 (Homo sapiens)
# Construct: mitochondrial fraction
# Sequence (P19099 25-503): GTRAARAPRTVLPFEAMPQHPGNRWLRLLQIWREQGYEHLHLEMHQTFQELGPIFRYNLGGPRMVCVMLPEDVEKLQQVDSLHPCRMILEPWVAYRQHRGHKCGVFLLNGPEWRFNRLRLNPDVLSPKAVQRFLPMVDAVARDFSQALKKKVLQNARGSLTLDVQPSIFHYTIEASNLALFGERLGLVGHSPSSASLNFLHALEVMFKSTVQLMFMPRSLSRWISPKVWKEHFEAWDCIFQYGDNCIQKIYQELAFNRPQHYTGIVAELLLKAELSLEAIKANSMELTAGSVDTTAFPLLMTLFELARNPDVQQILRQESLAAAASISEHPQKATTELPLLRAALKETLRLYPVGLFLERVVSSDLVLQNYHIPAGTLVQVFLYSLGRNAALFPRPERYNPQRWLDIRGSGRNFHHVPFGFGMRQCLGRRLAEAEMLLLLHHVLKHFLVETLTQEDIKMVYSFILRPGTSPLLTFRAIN
# experiment.summary: Inhibitory effect on hCYP11B2: aldosterone production in mitochondrial fraction of V79 cells stably expressing human CYP11B2, HTRF
# condition.context: 0.5 μmol/L deoxycorticosterone, 150 μmol/L NADPH, 1.5-2 hours at room temperature
readout: IC50 (nM)

Please review the following examples before continuing.
compound: Cc1ccccc1-c1cncc(N2CCN(CC(=O)N[C@H]3CN4CCC3CC4)CC2)n1 [Example 48]
readout: IC50
quantitative.readout: 14
//
compound: Cn1ncc2cc(-c3cncc(N4CCN(CC(=O)N[C@H]5CC[C@@H](C(C)(C)O)CC5)CC4)n3)ccc21 [Example 30]
readout: IC50
quantitative.readout: 13
//
compound: Cc1ccc(-c2cnnc(N3CCN(CC(=O)N[C@@H]4CCOC[C@@H]4O)CC3)c2)cc1 [Example 58]
readout: IC50
quantitative.readout: 20
//
compound: O=C(CN1CCN(c2cncc(-c3ccc(F)cc3)n2)CC1)NC1CCN(C2CCOCC2)CC1 [Example 34]
readout: IC50
quantitative.readout: 7
//
compound: O=C(CN1CCN(c2cc(-c3ccc(Cl)cc3)cnn2)CC1)NC1CCS(=O)(=O)CC1 [Example 70]
readout: IC50
quantitative.readout: 6
//
compound: CNC(=O)CN1CCC(NC(=O)CN2CCN(c3cc(-c4ccc(C)cc4)cnn3)CC2)CC1 [Example 59]
readout: IC50
quantitative.readout: 23
//
compound: CC(C)NC(=O)CN1CCN(c2cncc(-c3ccc4c(c3)CCO4)n2)CC1 [Example 55]
readout: IC50
quantitative.readout: 2.2
//
compound: Cc1ccccc1-c1cncc(N2CCN(CC(=O)NC3CCN(CCS(C)(=O)=O)CC3)CC2)n1 [Example 47]
readout: IC50
quantitative.readout: 22
//
compound: C[C@@H]1CN(c2cncc(-c3ccc(C(F)(F)F)cc3)n2)CCN1CC(=O)NCC(C)(C)O [Example 45]
readout: IC50
quantitative.readout: 20
//
compound: CC(C)(C)OC(=O)N1CCN(CCNC(=O)CN2CCN(c3cc(-c4ccc(F)cc4)cnn3)CC2)CC1 [Example 64]
readout: IC50
quantitative.readout: 6.6

I = C[C@@H]1CN(c2cncc(-c3ccc(C(F)(F)F)cc3)n2)CCN1CC(=O)N[C@@H](C)C(C)(C)O [Example 44]
II = O=C(CN1CCN(c2cc(-c3ccc(F)cc3)cnn2)CC1)N[C@@H]1CCNC[C@H]1F (single isomer, unassigned) [Example 89a]
[Q] Kindly identify which of I and II has the larger recorded IC50 value. Could you answer with the label of the item you picked?
[A] I

a = CC(=O)N[C@H]1CC[C@@H](NC(=O)CN2CCN(c3cc(-c4ccc(Cl)cc4)cnn3)CC2)CC1 [Example 69]
b = CN(C)[C@H]1CC[C@H](NC(=O)CN2CCN(c3cc(-c4ccc(F)cc4)cnn3)CC2)CC1 [Example 79]
c = CC(C)[C@@H](CO)NC(=O)CN1CCN(c2cncc(-c3ccc(C(F)(F)F)cc3)n2)C[C@H]1C [Example 42]
[Q] Thanks in advance: please rank these 3 entries by IC50, highest to lowest. A complete answer lists every label in the requested sequence.
[A] c, b, a

A = COC1CCN(NC(=O)CN2CCN(c3cc(-c4ccc(Cl)cc4)cnn3)CC2)CC1 [Example 65]
B = CC(C)NC(=O)CN1CCN(c2cncc(-c3ccc(C(F)(F)F)cc3)n2)C[C@H]1C [Example 51]
C = O=C(CN1CCN(c2cncc(-c3ccc(F)cc3)n2)CC1)NC1CCN(c2ncccn2)CC1 [Example 36]
[Q] Task for the reader: rank each entry by its IC50, from the minimum upward. A complete answer lists every label in the requested sequence.
[A] C, A, B
(C: 4.8 nM, A: 9.1 nM, B: 17 nM)

I = C[C@H](O)CNC(=O)CN1CCN(c2cncc(-c3ccc4cnn(C)c4c3)n2)CC1 [Example 18]
II = CO[C@H]1CC[C@@H](NC(=O)CN2CCN(c3cncc(-c4ccc(C)cc4)n3)CC2)CC1 [Example 20]
III = COCc1ccc(-c2cnnc(N3CCN(CC(=O)N[C@H]4CC[C@@H](N(C)C)CC4)CC3)c2)cc1 [Example 76]
IV = CS(=O)(=O)CCN1CCC(NC(=O)CN2CCN(c3cncc(-c4ccc(F)cc4)n3)CC2)CC1 [Example 35]
[Q] Task for the reader: rank each entry by its IC50, from the minimum upward. A complete answer lists every label in the requested sequence.
[A] II, IV, I, III
